- measurement-target: Gamma-secretase
- method-summary: Inhibition of amyloid-beta production in Chinese hamster ovary (CHO) cells expressing human amyloid precursor protein (APP)
Entries and their measured pIC50 follow.
In textbook form, pIC50 equals minus log to base ten of the concentration in mol/L.

See these solved cases before continuing.
{"columns": ["compound", "pIC50"],
 "data": [
  ["COC(=O)[C@H](Cc1ccccc1)NC(=O)[C@H](CC(C)C)NC(=O)N(Cc1ccccc1)C[C@@H](O)[C@H](Cc1ccccc1)NC(=O)OC(C)(C)C (stereo in doubt; 2)", 6.41],
  ["COC(=O)[C@@H](NC(=O)[C@H](CC(C)C)NC(=O)N(Cc1ccccc1)C[C@@H](O)[C@H](Cc1ccccc1)NC(=O)[C@@H](NC(=O)OC(C)(C)C)C(C)C)C(C)C", 7.15],
  ["COC(=O)[C@H](Cc1ccccc1)NC(=O)[C@H](Cc1ccccc1)NC(=O)N(Cc1ccccc1)C[C@@H](O)[C@H](Cc1ccccc1)NC(=O)OC(C)(C)C", 4.74]
]}

Kindly consider the entry below.
Req: System Gamma-secretase. Read-out pIC50. Item COC(=O)[C@H](Cc1ccccc1)NC(=O)[C@@H](NC(=O)[C@H](CC(C)C)NC(=O)N(Cc1ccccc1)C[C@@H](O)[C@H](Cc1ccccc1)NC(=O)OC(C)(C)C)C(C)C . Report value.
Resp: 6.60

----------
- measurement-target: Gamma-secretase
- method-summary: Inhibition of amyloid-beta production in Chinese hamster ovary (CHO) cells expressing human amyloid precursor protein (APP)
Entries and their measured pIC50 follow.
In textbook form, pIC50 equals minus log to base ten of the concentration in mol/L.

{"columns": ["compound", "pIC50"],
 "data": [
  ["COC(=O)[C@H](Cc1ccccc1)NC(=O)[C@H](CC(C)C)NC(=O)N(Cc1ccccc1)C[C@@H](O)[C@H](Cc1ccccc1)NC(=O)OC(C)(C)C (stereo in doubt; 12)", 6.41],
  ["CC[C@H](C)[C@H](NC(=O)[C@@H](NC(=O)[C@H](CC(C)C)NC(=O)N(Cc1ccccc1)C[C@@H](O)[C@H](Cc1ccccc1)NC(=O)OC(C)(C)C)C(C)C)C(=O)OC", 6.57],
  ["COC(=O)[C@@H](NC(=O)[C@H](CC(C)C)NC(=O)N(Cc1ccccc1)C[C@@H](O)[C@H](Cc1ccccc1)NC(=O)[C@H](C)NC(=O)OC(C)(C)C)C(C)C", 6.82],
  ["COC(=O)[C@H](Cc1ccccc1)NC(=O)[C@H](CC(C)C)NC(=O)N(C)C[C@@H](O)[C@H](Cc1ccccc1)NC(=O)OC(C)(C)C", 5.51],
  ["COC(=O)[C@H](Cc1ccccc1)NC(=O)[C@H](CC(C)C)NC(=O)N(C[C@@H](O)[C@H](Cc1ccccc1)NC(=O)OC(C)(C)C)C(C)C", 4.66]
]}

Req: System Gamma-secretase. Read-out pIC50. Item COC(=O)[C@@H](NC(=O)[C@H](CC(C)C)NC(=O)N(Cc1ccccc1)C[C@@H](O)[C@H](Cc1ccccc1)NC(=O)OC(C)(C)C)C(C)C . Report value.
Resp: 6.66

Req: System Gamma-secretase. Read-out pIC50. Item COC(=O)[C@@H](NC(=O)[C@H](CC(C)C)NC(=O)N(Cc1ccccc1)C[C@@H](O)[C@H](Cc1ccccc1)NC(=O)[C@H](CC(C)C)NC(=O)OC(C)(C)C)C(C)C . Report value.
Resp: 6.64

Req: System Gamma-secretase. Read-out pIC50. Item COC(=O)[C@H](C)NC(=O)[C@H](CC(C)C)NC(=O)N(Cc1ccccc1)C[C@@H](O)[C@H](Cc1ccccc1)NC(=O)OC(C)(C)C . Report value.
Resp: 4.70

Req: System Gamma-secretase. Read-out pIC50. Item COC(=O)[C@H](CC(C)C)NC(=O)[C@@H](NC(=O)[C@H](CC(C)C)NC(=O)N(Cc1ccccc1)C[C@@H](O)[C@H](Cc1ccccc1)NC(=O)OC(C)(C)C)C(C)C . Report value.
Resp: 6.27

Data provenance: ChEMBL document CHEMBL1137957
